B1: RTN2 (parent)
chain: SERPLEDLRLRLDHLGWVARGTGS

# Variants of: B1
# experimentNotes: protein stability index of a GFP-peptide fusion (GPS, HEK-293T) (PSI 1-6); higher = more stable;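 note: lentivirally expressed fusions sorted by FACS into six bins by GFP to DsRed ratio, PSI derived from sequencing read proportions per bin multiplied by bin number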
# measurementContext: c terminus: a fixed tail appended
metricName: protein stability index
Lab note: record the figure alone, no unit after it.

Asked: Assign protein stability index to the following record: P4V
Given back: 1.26

Asked: Assign protein stability index to the following record: G21T
Given back: 2.08

Asked: Assign protein stability index to the following record: G23T
Given back: 3.04

Asked: Assign protein stability index to the following record: G16P
Given back: 2.1

Asked: Assign protein stability index to the following record: H14I
Given back: 1.99

Asked: Assign protein stability index to the following record: L8A
Given back: 2.73

Asked: Assign protein stability index to the following record: L15I
Given back: 2.28

Asked: Assign protein stability index to the following record: L12A
Given back: 2.97

Asked: Assign protein stability index to the following record: R3H
Given back: 2.76

Asked: Assign protein stability index to the following record: R9M
Given back: 1.42

Asked: Assign protein stability index to the following record: V18Y
Given back: 2.67

Asked: Assign protein stability index to the following record: R20C
Given back: 1.86

Asked: Assign protein stability index to the following record: E6I
Given back: 1.71

Asked: Assign protein stability index to the following record: E6F
Given back: 2.78

Asked: Assign protein stability index to the following record: L12W
Given back: 2.38

Asked: Assign protein stability index to the following record: L10C
Given back: 2.73

Asked: Assign protein stability index to the following record: R11I
Given back: 1.41

Asked: Assign protein stability index to the following record: P4Q
Given back: 2.95

Asked: Assign protein stability index to the following record: L15A
Given back: 2.88

Asked: Assign protein stability index to the following record: V18T
Given back: 2.86

Asked: Assign protein stability index to the following record: R9W
Given back: 1.64

Asked: Assign protein stability index to the following record: H14L
Given back: 1.93

Asked: Assign protein stability index to the following record: T22Y
Given back: 2.79

Asked: Assign protein stability index to the following record: L5I
Given back: 2.52

Asked: Assign protein stability index to the following record: S24V
Given back: 3.15

Asked: Assign protein stability index to the following record: S1I
Given back: 3.02

Asked: Assign protein stability index to the following record: T22M
Given back: 2

Asked: Assign protein stability index to the following record: E6N
Given back: 2.24

Asked: Assign protein stability index to the following record: V18D
Given back: 4.31

Asked: Assign protein stability index to the following record: A19N
Given back: 3.34

Asked: Assign protein stability index to the following record: E6V
Given back: 2.63

Asked: Assign protein stability index to the following record: H14R
Given back: 2.36

Asked: Assign protein stability index to the following record: S1L
Given back: 1.76

Asked: Assign protein stability index to the following record: E2F
Given back: 2.9

Asked: Assign protein stability index to the following record: L8F
Given back: 1.96

Asked: Assign protein stability index to the following record: D7T
Given back: 1.88

Asked: Assign protein stability index to the following record: R11N
Given back: 2.58

Asked: Assign protein stability index to the following record: R11Q
Given back: 2.9

Asked: Assign protein stability index to the following record: S24Y
Given back: 2.12

Asked: Assign protein stability index to the following record: L10E
Given back: 3.15

Asked: Assign protein stability index to the following record: V18R
Given back: 4.14

Asked: Assign protein stability index to the following record: L12R
Given back: 2.16

Asked: Assign protein stability index to the following record: R9D
Given back: 2.31

Asked: Assign protein stability index to the following record: G21N
Given back: 2.83

Asked: Assign protein stability index to the following record: R9A
Given back: 2.34

Asked: Assign protein stability index to the following record: S24D
Given back: 2.59
